Biological target: mouse GLP-1 receptor (mGLP-1r) (Mus musculus)
Construct: expressed in transfected cells; host or cells: HEK293s or CHO cells
Sequence (O35659 22-463): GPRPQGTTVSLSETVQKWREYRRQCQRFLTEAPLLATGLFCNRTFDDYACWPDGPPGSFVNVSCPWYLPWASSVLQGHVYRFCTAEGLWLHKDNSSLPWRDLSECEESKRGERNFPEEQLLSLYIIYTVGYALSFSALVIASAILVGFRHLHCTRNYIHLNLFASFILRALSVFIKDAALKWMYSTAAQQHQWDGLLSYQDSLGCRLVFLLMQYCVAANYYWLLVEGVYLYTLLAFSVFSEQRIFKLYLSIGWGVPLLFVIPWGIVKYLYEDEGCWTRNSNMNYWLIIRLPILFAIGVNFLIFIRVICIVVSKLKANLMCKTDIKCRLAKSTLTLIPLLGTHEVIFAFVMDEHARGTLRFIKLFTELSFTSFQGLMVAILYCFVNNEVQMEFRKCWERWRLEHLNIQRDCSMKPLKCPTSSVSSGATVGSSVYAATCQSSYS
Assay: BSA-cAMP assay, cells expressing mouse GLP-1 receptor
Type: cell-based
Settings: Batch 1; BSA-cAMP assay; read-out: mGLP1r cAMP activity EC50
Listing of recorded pEC50 by entry.
Just the number, please; pEC50 means minus log10 of the concentration in mol/L.

Use the examples below as a reference point.
(Q) // returns reported pEC50 for input IP381: Fc fusion, IgG1-fusion, SEQ ID NO:377; agonist peptide YSEGTFTSDYSKLLEEEAVRLFIEYLLAGG (YSEGTFTSDYSKLLEEEAVRLFIEYLLAGGGGGGSGGGGSGGGGSGGGGSATHTCPPC)
(A) 9.14

(Q) Look up pEC50: IP412: Fc fusion, IgG1-TM, SEQ ID NO:387; agonist peptide YSEGTFTSDYSKLLEEEANRLFIEWLLAGG (YSEGTFTSDYSKLLEEEANRLFIEWLLAGGGGGGSGGGGSGGGGSGGGGSATHTCPPC)
(A) 8.92

(Q) Give the measured pEC50 of IP302 (YSEGTFISDYSIALAAAAQQDFVNWLLAGGGGGGGSGGGGSGGGGSGGGGSATHTCPPC) .
(A) 7.03

(Q) Endpoint output: pEC50 of IP413: Fc fusion, IgG1-TM, SEQ ID NO:388; agonist peptide YSEGTFTSDYSKLLEEEASRLFIEWLLAGG (YSEGTFTSDYSKLLEEEASRLFIEWLLAGGGGGGSGGGGSGGGGSGGGGSATHTCPPC) . Value?
(A) 8.05

New cases:
(Q) // pEC50 lookup, key: IP380: Fc fusion, IgG1-fusion, SEQ ID NO:376; agonist peptide YSEGTFTSDYSKLLEEEAVRLFIEFLLAGG (YSEGTFTSDYSKLLEEEAVRLFIEFLLAGGGGGGSGGGGSGGGGSGGGGSATHTCPPC)
(A) 8.92

(Q) Fill in the blank: the reported pEC50 of IP320 (YSEGTFTSDYAAAAEAAAAAAFAAWLAAAAGGGGGSGGGGSGGGGSGGGGSACPPC) is ____.
(A) 5.60

(Q) GET /values?readout=pEC50&item= IP359: Fc fusion, IgG1-TM, SEQ ID NO:366; agonist peptide YSEGTFTSDYSKLLEEEAVRLFIEHLLAGG (YSEGTFTSDYSKLLEEEAVRLFIEHLLAGGGGGGSGGGGSGGGGSGGGGSATHTCPPC)
(A) 9.70

(Q) Quick one: pEC50 for IP311 (YSEGTFISDYSIALAAAAIDDFVNWLLAGGGGGGGSGGGGSGGGGSGGGGSATHTCPPC) ?
(A) 5.82

(Q) Looking for the measured pEC50 of IP342 (YSEGTFTSDYSAAAEAAAAAAFAAWLAAAAGGGGGSGGGGSGGGGSGGGGSACPPC) , can you help?
(A) 6.17

(Q) Given the entry IP396 (YSEGTFTSDYSKLLERQAIDEFIAWLLKGGGGGGGSGGGGSGGGGSGGGGSACPPC) , report its measured pEC50.
(A) 8.92

---

Biological target: mouse GIP receptor (mGIPr) (Mus musculus)
Construct: expressed in transfected cells; host or cells: HEK293s or CHO cells
Sequence (Q0P543 19-460): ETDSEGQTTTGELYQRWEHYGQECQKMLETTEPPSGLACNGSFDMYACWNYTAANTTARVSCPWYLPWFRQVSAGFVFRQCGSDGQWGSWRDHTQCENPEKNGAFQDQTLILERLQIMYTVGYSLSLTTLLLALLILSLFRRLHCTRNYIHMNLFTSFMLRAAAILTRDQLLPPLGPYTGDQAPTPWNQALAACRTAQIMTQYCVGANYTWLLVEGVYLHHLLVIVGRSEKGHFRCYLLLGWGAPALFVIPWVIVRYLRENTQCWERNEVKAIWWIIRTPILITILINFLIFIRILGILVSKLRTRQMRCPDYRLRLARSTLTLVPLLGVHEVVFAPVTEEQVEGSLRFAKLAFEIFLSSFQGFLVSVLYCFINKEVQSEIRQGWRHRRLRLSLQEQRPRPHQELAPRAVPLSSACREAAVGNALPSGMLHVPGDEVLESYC
Experiment: BSA-cAMP assay, cells expressing mouse GIP receptor
Format: cell-based
Conditions: Batch 1; BSA-cAMP assay; read-out: mGIPr cAMP activity EC50
Description: One basic cAMP assays was performed, differing in the medium used for the assay, the “BSA-cAMP assay”: BSA-based assay medium: 0.1% bovine serum albumin (BSA) in […] cAMP levels were measured using a commercially available cAMP dynamic 2 HTRF kit (Cisbio, Cat #62AM4PEJ), following the two step protocol as per manufacturer's recommendations. […]
Reported pEC50 values for a set of substances
pEC50 field: float, defined as -log10 of concentration (mol/L).

(Q) State the recorded pEC50 for this entry: IP420: Fc fusion, IgG1-TM, SEQ ID NO:391; agonist peptide YSEGTFTSDYSKLLEEEATRLFIEWLLAGG (YSEGTFTSDYSKLLEEEATRLFIEWLLAGGGGGGSGGGGSGGGGSGGGGSATHTCPPC)
(A) 8.59

(Q) Item IP314: Fc fusion, IgG1-TM(ΔK), SEQ ID NO:431; agonist peptide YSEGTFISDYSKLLAAAAVRDFVNWLLAGG (YSEGTFISDYSKLLAAAAVRDFVNWLLAGGGGGGGSGGGGSGGGGSGGGGSATHTCPPC) has what recorded pEC50?
(A) 7.82

(Q) Dear colleague, I am looking for the recorded pEC50 of the following substance: IP305: Fc fusion, IgG1-TM(ΔK), SEQ ID NO:430; agonist peptide YSEGTFISDYSIALAAAAVRDFVNWLLAGG (YSEGTFISDYSIALAAAAVRDFVNWLLAGGGGGGGSGGGGSGGGGSGGGGSATHTCPPC)
(A) 8.49

(Q) State the recorded pEC50 for this entry: IP359: Fc fusion, IgG1-TM, SEQ ID NO:366; agonist peptide YSEGTFTSDYSKLLEEEAVRLFIEHLLAGG (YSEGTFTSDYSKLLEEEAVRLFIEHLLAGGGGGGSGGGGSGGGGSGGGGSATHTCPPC)
(A) 8.08

(Q) Give its pEC50 value. Item: IP368 (YSEGTFTSDYRQAIDRQAIDEFIAWLLKGGGGGGGSGGGGSGGGGSGGGGSACPPC)
(A) 8.89

---

Molecular target: rat GLP-1 receptor (rGLP-1r) (Rattus norvegicus, UniProt P32301)
Construct: expressed in transfected cells; host or cells: HEK293s or CHO cells
Sequence (P32301 22-463): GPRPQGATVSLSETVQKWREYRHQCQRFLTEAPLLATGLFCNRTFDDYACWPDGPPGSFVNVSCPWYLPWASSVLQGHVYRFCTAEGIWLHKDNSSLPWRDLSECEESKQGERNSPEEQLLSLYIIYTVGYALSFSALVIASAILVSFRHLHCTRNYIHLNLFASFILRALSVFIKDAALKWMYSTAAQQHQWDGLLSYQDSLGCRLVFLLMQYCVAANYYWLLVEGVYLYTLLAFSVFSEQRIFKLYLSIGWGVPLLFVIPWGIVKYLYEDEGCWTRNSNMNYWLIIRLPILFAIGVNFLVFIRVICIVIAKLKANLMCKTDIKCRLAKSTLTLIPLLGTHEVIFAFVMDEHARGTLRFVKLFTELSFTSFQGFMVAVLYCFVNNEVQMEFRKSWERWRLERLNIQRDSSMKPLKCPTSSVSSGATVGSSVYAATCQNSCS
Assay: BSA-cAMP assay, cells expressing rat GLP-1 receptor
Assay type: cell-based
Settings: Batch 1; BSA-cAMP assay; read-out: rGLP1r cAMP activity EC50
readoutLabel: pEC50
Reminder that pEC50 means the negative base-10 logarithm of the concentration expressed in mol/L.

(Q) Fill in the blank: the reported pEC50 of IP395 (YSEGTFTSDYSKLLERQAIDEFIAHLLKGGGGGGGSGGGGSGGGGSGGGGSACPPC) is ____.
(A) 10.80

(Q) Which pEC50 value belongs to IP320 (YSEGTFTSDYAAAAEAAAAAAFAAWLAAAAGGGGGSGGGGSGGGGSGGGGSACPPC) ?
(A) 6.89

(Q) Can you share its pEC50? I mean this substance: IP311 (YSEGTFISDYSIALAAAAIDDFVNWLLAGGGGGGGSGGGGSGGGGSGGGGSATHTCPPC)
(A) 7.21

(Q) Recorded pEC50 for IP385 (YSEGTFTSDYSIYLDRQAIDEFIAWLLKGGGGGGGSGGGGSGGGGSGGGGSACPPC) , please?
(A) 9.80

(Q) // lookup pEC50 for IP381: Fc fusion, IgG1-fusion, SEQ ID NO:377; agonist peptide YSEGTFTSDYSKLLEEEAVRLFIEYLLAGG (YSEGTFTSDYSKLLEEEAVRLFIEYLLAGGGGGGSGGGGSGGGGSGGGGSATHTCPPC)
(A) 10.57

(Q) Field request: pEC50 | item: IP299: Fc fusion, IgG1-TM(ΔK), SEQ ID NO:351; agonist peptide YSEGTFISDYSKLLEEEAVRDFVEWLKAGG (YSEGTFISDYSKLLEEEAVRDFVEWLKAGGGGGGGSGGGGSGGGGSGGGGSATHTCPPC)
(A) 7.72

Others:
(Q) What does the data say about its pEC50? Entry: IP343 (YSEGTFTSDYAAAAERQAIDAFAAWLAAAAGGGGGSGGGGSGGGGSGGGGSA)
(A) 6.44

(Q) Can you share its pEC50? I mean this substance: IP302 (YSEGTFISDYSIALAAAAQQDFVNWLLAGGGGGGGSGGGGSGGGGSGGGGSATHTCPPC)
(A) 8.15

Just for reference, patent US20160185837A1 is where these values come from.
